# Experiment summary: Bioavailability in Sprague-Dawley rat at 10 mg/kg, iv and po
# Format: ADME, organism-based
# Settings: in vivo
Assay metric: bioavailability (%)
The reply should contain only the number, in %.

Ask: Given the compound CCN(CC)c1ncc(-c2c(C)noc2C)c(N[C@@H](Cc2ccc(OC(=O)N(C)C)cc2)C(=O)O)n1 , what is its reported bioavailability?
Result: 19

====

# Experiment summary: Clearance in Beagle dog at 3 mg/kg, iv and 10 mg/kg, po
# Assay type: ADME, organism-based, Canis lupus familiaris
# Settings: in vivo
Assay metric: clearance (mL/min/kg)
The reply should contain only the number, in mL/min/kg.

Ask: Given the molecule CCN(CC)c1ncc(-c2c(C)noc2C)c(N[C@@H](Cc2ccc(OC(=O)N(C)C)cc2)C(=O)O)n1 , what is its reported clearance?
Result: 6.73
